# tgt: melanocortin MC-4 receptor (Homo sapiens)
# Construct: purchased Receptor Biology Inc
# Sequence (P32245 whole entry): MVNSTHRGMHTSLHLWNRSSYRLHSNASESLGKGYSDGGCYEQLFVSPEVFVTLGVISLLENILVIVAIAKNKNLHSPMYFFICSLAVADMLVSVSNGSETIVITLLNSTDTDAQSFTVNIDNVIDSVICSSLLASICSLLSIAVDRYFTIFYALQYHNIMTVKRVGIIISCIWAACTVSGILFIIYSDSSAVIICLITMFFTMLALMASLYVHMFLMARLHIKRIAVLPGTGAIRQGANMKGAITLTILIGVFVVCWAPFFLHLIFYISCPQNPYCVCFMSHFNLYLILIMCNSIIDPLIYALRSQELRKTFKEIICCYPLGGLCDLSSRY
# procedure_details: MC-4 receptor binding (Filtration)
# test_settings: Filtration; read-out: IC50 MC-4 (μM) (Filtration)
Answer each item with its documented IC50.
Expressed in µM, but write only the number.

# lookup: Cc1ccc(-[n+]2sc(Nc3ccccc3Cl)nc2-c2ccccc2)cc1 on melanocortin MC-4 receptor (Homo sapiens), IC50 = 2.2

# lookup: Cc1ccccc1-[n+]1sc(Nc2ccccc2)nc1-c1ccccc1 on melanocortin MC-4 receptor (Homo sapiens), IC50 = 1.4

# lookup: Cc1ccc(-[n+]2sc(Nc3ccccc3)nc2-c2ccccc2)cc1 on melanocortin MC-4 receptor (Homo sapiens), IC50 = 1.5

# lookup: Clc1ccc(-[n+]2sc(Nc3ccccc3Cl)nc2-c2ccccc2)cc1 on melanocortin MC-4 receptor (Homo sapiens), IC50 = 7.8

# lookup: COc1ccccc1Nc1nc(-c2ccccc2)[n+](-c2ccccc2C)s1 on melanocortin MC-4 receptor (Homo sapiens), IC50 = 2.3

Data origin, for the record: patent US7049331B2
